Below are IC50 values recorded for PDE5 (Homo sapiens, UniProt O76074).

MOLECULE	STUDY TARGET	IC50 / µM
O[C@H]1CO[C@H]1c1ccccc1 (relative stereo) [cis-phenyloxetan-3-ol]	PDE5 (Homo sapiens, UniProt O76074)	3.4
O[C@@H]1CO[C@H]1c1ccccc1 (relative stereo) [trans-phenyloxetan-3-ol]	PDE5 (Homo sapiens, UniProt O76074)	4.37
